Recorded protein stability index, one value per entry.
Measurement Protocol: protein stability index of a GFP-peptide fusion (GPS, HEK-293T) (PSI 1-6); higher = more stable;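 note: 24-mer peptide tiles fused after GFP, lentivirally expressed, FACS-sorted into six equal bins by GFP/DsRed ratio, decoded by Illumina sequencing, PSI is the read-weighted mean bin number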
Test Context: treatment: DMSO; c terminus: a fixed tail appended
The answer should be a number; do not append a unit.

> print(dat)
                        biosequence  endpoint.result
1  VSTVSHADADCFVCVFLSHGEGNH [CASP6]             2.37

Could you now look at the following sequence, please?
input: What value of measured protein stability index is listed for LSHLLGDAGSPYLIGLISDRLRRN [SPNS1] ?
output: 2.18

---

Measurement Protocol: protein stability index of a GFP-peptide fusion (GPS, HEK-293T) (PSI 1-6); higher = more stable
Test Context: treatment: MLN4924 1 uM, 8 h; c terminus: a fixed tail appended
Class 1: protein stability index at least 3. Class -1: protein stability index below 3.

> print(dat)
                          biosequence  group.label
1  RRHLQFWKSHLRNVQRPLLQAPFL [RHOBTB2]           -1
2   GSGDSGDSSEEESHRVVLRPRGKE [LYSMD4]            1
3   ALSPKTTITMAHLLAAREDLSKII [FAM98B]           -1

input: State whether the measured protein stability index reaches 3, counting equality as reaching it, for LTKAATSGVGIDGEVLSYLELAQF [RHOBTB1]
output: -1

input: Please do the same for KSPEMPVILEVSLEGSHDTANCEA [RTP4] as well.
output: 1

input: Another: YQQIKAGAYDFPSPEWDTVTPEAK [CAMK2B]
output: 1

input: Continue with ITSSVFPSASLGKASSRKPFGILS [FBXO34]
output: -1

input: And the next one, GEEAVTLVEDMQRELGRLRQQVTN [ZNF263] ?
output: 1

input: Can you handle GAQVKELEEKCQQPASELLQDVRV [TRIM15] next?
output: 1

input: Follow-up entry: ASVAMICAIASGSELSESAFGYFI [SLC29A1]
output: -1

input: Same read-out for DEDFTFGAYQPTVVSSEGRQSRRQ [FBF1] ?
output: 1

input: Entry to check: LKLSIMSEEELTHIFGDLDSYIPL [NET1]
output: -1

---

Measurement Protocol: protein stability index of a GFP-peptide fusion (GPS, HEK-293T) (PSI 1-6); higher = more stable
Test Context: treatment: MLN4924 1 uM, 8 h; c terminus: a fixed tail appended
Listed sequences paired with reported protein stability index
Reply briefly: the number, and no unit.

> print(dat)
                          biosequence  endpoint.result
1  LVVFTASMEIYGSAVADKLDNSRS [CTDNEP1]             2.26
2     DIVDRGSTNLGVNQAGFTLHSAIY [ADD1]             2.49
3  LSEGSSNEDEDLGPCEGPSKEDKD [SPANXN3]             5.37
4   RGREAGPPQPMVPLAVENQAGGEG [PBXIP1]             5.25
5     QEAPLQDDSCLNNDIPHSIPLEQG [FAN1]             5.27

input: Fill in: protein stability index of EEEKILRVKLEEDPDGEEGSSIPW [ZNF24] is ___
output: 5.58

input: Now this one: NGQLMAVGGFDGTTYLKTIEVFDP [KLHL20]
output: 2.91

---

Measurement Protocol: protein stability index of a GFP-peptide fusion (GPS, HEK-293T) (PSI 1-6); higher = more stable
Test Context: treatment: MLN4924 1 uM, 8 h; c terminus: a fixed tail appended
Would you mind sorting the entries by protein stability index according to these classes? group 1 (below 3), group 2 (3 to below 4), group 3 (4 or more)

> print(dat)
                         biosequence  group.label
1  FSQYGRIITSRILVDQVTGVSRGV [ELAVL3]      group 1

input: Band assignment needed for QVLDEVIPIHGKGNFPTMEVKPKD [TENT5D] please.
output: group 3

input: How about MECPEGQLPISSENDSTPTVSTSE [TAF7L] ?
output: group 3

input: Same again, this time with FCNISLFEDLPLQEPQSPQKLNPG [PLAGL1]
output: group 2

input: Now try IGELLAPAAPFDKKCGRENWTVAF [WSB1] .
output: group 1

input: Note, next up: MMEEIDRFQDPAAASISDGDCDAR [FAM219A]
output: group 3

input: Subsequent entry: HFWGEKNHGFEVLYHSVKQGPIST [FCHO1]
output: group 1

input: Again, but for DDIVSGRLPCSFVTLALLGSYTVQ [EPB41L3]
output: group 1

input: Same read-out for EQIGHILVSWLPRLNAYRGYCSNQ [NET1] ?
output: group 1

input: Now this one: NAININELFIEISRRIPSTDANLP [RAB22A]
output: group 1

input: # repeat for EREPVRGQCLDSTDQLEFTVEPRL [RTN2]
output: group 3

input: Also VERILARGENLEHLRNKTEDLEAT [VAMP8] ?
output: group 3

input: Same lookup for SARCVVSFNILVEDRVKLFGIEIE [PCDHGA10] , please.
output: group 1

input: Also IEAKEACDWLRATGFPQYAQLYED [DLC1] , if possible.
output: group 2

input: Let us now turn to AIMLLPDENREVLQTLLYFLSDVT [DLC1]
output: group 1

input: Follow-up item: VFNAARDGKLRLLTKLLASKSKEE [FEM1C]
output: group 1

input: Repeat with TLCKADLEAQVESLKEELMCLKKN [KRT36]
output: group 2

input: Try the sequence LEEFKENAYKDLAWKHGNIHLSAP [PCMTD2]
output: group 2

---

Reported protein stability index by item:
Measurement Protocol: protein stability index of a GFP-peptide fusion (GPS, HEK-293T) (PSI 1-6); higher = more stable
Test Context: treatment: MLN4924 1 uM, 8 h; c terminus: a fixed tail appended
Please reply with the number alone, leaving off any unit.

input: Would you kindly share the measured protein stability index for EECPAHLLEDPLCADVILVLQERV [RHOBTB2] ?
output: 3.47

input: Ok, now PILQEGMDEEKLKQLNCVEISALN [DLC1]
output: 4.87

input: Let us now turn to ESKEPIEEEPTGAGLNKDKETEER [SDE2]
output: 5.7

---

Form field: protein stability index (one value per entry).
Measurement Protocol: protein stability index of a GFP-peptide fusion (GPS, HEK-293T) (PSI 1-6); higher = more stable
Test Context: treatment: DMSO; c terminus: a fixed tail appended
Reply briefly: the number, and no unit.

Previously resolved entries follow.
> print(dat)
                         biosequence  endpoint.result
1    TPQPTALTFAKSSWARQESLQERK [AUP1]             4.43
2  DDDDDDAQILPSRVQGGCYRFDSS [DRICH1]             4.65
3  VLRGRLYAIAGYDGNSLLSSIECY [KLHL12]             1.91
4    QINDGMGGDGDDMEIFMEEMREIR [BEX3]             4.81

Okay, now this sequence:
input: Which protein stability index is listed for LSSEVLVGDLMSPFDQSGLGAEES [ATF4] ?
output: 5

---

Measurement Protocol: protein stability index of a GFP-peptide fusion (GPS, HEK-293T) (PSI 1-6); higher = more stable
Test Context: treatment: MLN4924 1 uM, 8 h; c terminus: a fixed tail appended
Returns label 1 if the recorded protein stability index is greater than or equal to 4, and label 0 otherwise.

> print(dat)
                         biosequence  group.label
1  EKIHEMVKKNSAKSMGLKKKAFVW [ACSBG2]      label 0
2  HRDLKPENLLLASKLKGAAVKLAD [CAMK2A]      label 0
3    SDSLLQSWNSQSSLLDVQRVPSFE [ETS2]      label 0

input: Check this sequence for protein stability index at or above 4: YHRETEGEEQSQYMHVGSCQHLSS [KCNA3]
output: label 1

input: Here is the next sequence: PGKINCLRNCKTYQARKPLWFYNT [RHOBTB3]
output: label 0

---

Measurement Protocol: protein stability index of a GFP-peptide fusion (GPS, HEK-293T) (PSI 1-6); higher = more stable
Test Context: treatment: MLN4924 1 uM, 8 h; c terminus: native
Endpoint Label: protein stability index
# print the numeric value only

Some solved cases for reference:
> print(dat)
                         biosequence  endpoint.result
1     SPSENSKEAEILEVLRHPRDWVR [CPOX]             4.53
2  SIGIDNLGLKLEENLQETHSAVL [SLC35F2]             4.53
3    SIIILLELAILGGLVYYKFFRSH [VTI1B]             2.63
4    EILEIDDLDAIVPAVKKLKVLSY [CEP70]              3.1
5    GKQPVSLPARRLKLRGRKRRQRG [CPXM2]             3.59

input: protein stability index lookup needed for KLKVQALKDRGLSIPRADTLDEY [LSM1] , thanks.
output: 4.04

input: Now try NRILAERIAKEIQVIPLQRDDED [IMPA1] .
output: 3.65

input: Input LICFCRESRYMDQWVPVINLPER [GADD45A]
output: 2.87

input: What about this sequence? KAYGWCSELIRHRRVHARKEPSH [ZNF232]
output: 2.51

input: Please do the same for ENELMISYLMFLQILVYFSFMSW [FAM98B] as well.
output: 3.26

input: Repeat with QGDSADETTAHKTEEENSDSDSD [CMTM3]
output: 5.7
